Each entry below lists one item and its recorded protein stability index value.
B1: PDS5B (parent)
chain: ITYPPGVKEISDKISKEEMVRRLK

Variants of: B1
assay explanation: protein stability index of a GFP-peptide fusion (GPS, HEK-293T) (PSI 1-6); higher = more stable;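 also: lentivirally expressed fusions sorted by FACS into six bins by GFP to DsRed ratio, PSI derived from sequencing read proportions per bin multiplied by bin number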
measurement parameters: c terminus: a fixed tail appended
assay endpoint: protein stability index

INSERT INTO assay_data (residue_change, assay_endpoint, readout_value) VALUES
  ('Y3H', 'protein stability index', 4.43),
  ('E18P', 'protein stability index', 3.69),
  ('E18K', 'protein stability index', 3.17),
  ('P5R', 'protein stability index', 3.81),
  ('R22M', 'protein stability index', 2.89),
  ('P4V', 'protein stability index', 2.97),
  ('T2W', 'protein stability index', 3.45),
  ('E9N', 'protein stability index', 3.59),
  ('R21V', 'protein stability index', 4.11),
  ('Y3W', 'protein stability index', 2.8),
  ('I10A', 'protein stability index', 4.03),
  ('E18F', 'protein stability index', 2.18);

The reported measurements were obtained from the supplement of paper PMC10567573.
